Tested on: rabbit monoclonal antibody to Melatonin
Test: Cross reactivity in Rapid Melatonin ELISA (competitive, melatonin-HRP)
Assay type: binding
Settings: tested at 10 to 20-fold above the highest standard (50 pg/ml); predicted value as melatonin divided by actual concentration added
valueType: Cross Reactivity (%)

compound: NCCc1c[nH]c2ccc(O)cc12
result: <0.05%

Consider "COc1ccc2[nH]cc(CCO)c2c1" . Its measured Cross Reactivity (%) is 1.30%

----------
Test system: rabbit monoclonal antibody to Melatonin
Experiment: Cross reactivity in Rapid Melatonin ELISA (competitive, melatonin-HRP)
Format: binding
Conditions: tested at 10 to 20-fold above the highest standard (50 pg/ml); predicted value as melatonin divided by actual concentration added
Below is a list of entries, each paired with its recorded Cross Reactivity (%) value.

molecule: COc1cc2c(CCNC(C)=O)c[nH]c2cc1O [6-hydroxy melatonin]
valueType: Cross Reactivity (%)
result: <0.05%
//
molecule: COc1ccc(NC=O)c(C(=O)CCNC(C)=O)c1 [AFMK]
valueType: Cross Reactivity (%)
result: 16.5%
//
molecule: N[C@@H](Cc1c[nH]c2ccccc12)C(=O)O [L-Tryptophan]
valueType: Cross Reactivity (%)
result: <0.05%
//
molecule: Cn1c(=O)c2c(ncn2C)n(C)c1=O [Caffeine]
valueType: Cross Reactivity (%)
result: <0.05%
//
molecule: CC(=O)NCCc1c[nH]c2ccc(O)cc12 [N-acetyl serotonin]
valueType: Cross Reactivity (%)
result: <0.05%

Looking up COc1ccc2[nH]cc(CCN)c2c1 [5-methoxy tryptamine] , I see its Cross Reactivity (%) listed as <0.05%

Value of measured Cross Reactivity (%) for the entry COc1cc2c(CCNC(C)=O)c[nH]c2cc1Cl [6-chloro melatonin] : 5.40%
